Taken from patent US11389463B2.

# PROTOCOL TEXT: Liver microsomal metabolism experiment, human liver microsomes
# Type: in vitro ADME
# EXPERIMENTAL SETUP: pH 7.4, 1 μM compound, 0.5 mg/mL protein, NADPH, read-out: Human liver microsome experiment t1/2(min)
MEASURE NAME: half-life at 1 μM (min)
Your answer is read as min, so omit the unit and give the number.

// half-life at 1 μM lookup, key: CCCCCCCCCCCCCCCCS(=S)CCO[P@](=O)(CO[C@H](C)Cn1cnc2c(N)ncnc21)OCOC(=O)OC(C)C (single isomer, unassigned)
19.5

---

# PROTOCOL TEXT: Liver microsomal metabolism experiment, rat liver microsomes
# Assay type: in vitro ADME
# EXPERIMENTAL SETUP: SD, pH 7.4, 1 μM compound, 0.5 mg/mL protein, NADPH, read-out: Rat liver microsome experiment CLint
MEASURE NAME: microsomal CLint at 1 μM (µL/min/mg)
Your answer is read as µL/min/mg, so omit the unit and give the number.

// microsomal CLint at 1 μM lookup, key: CCCCCCCCCCCCCCCCS(=S)CCO[P@](=O)(CO[C@H](C)Cn1cnc2c(N)ncnc21)OCOC(=O)OC(C)C (single isomer, unassigned)
54.4

---

# PROTOCOL TEXT: Liver microsomal metabolism experiment, rat liver microsomes
# Assay type: in vitro ADME
# EXPERIMENTAL SETUP: SD, pH 7.4, 1 μM compound, 0.5 mg/mL protein, NADPH, read-out: Rat liver microsome experiment t1/2(min)
# Protocol: Microsomal experiments: human liver microsomes: 0.5 mg/mL, Xenotech; rat liver microsomes: 0.5 mg/mL, Xenotech; coenzyme (NADPH/NADH): 1 mM, Sigma Life Science; magnesium chloride: 5 mM, 100 mM phosphate buffer (pH 7.4). […] Data analysis: The peak area of the corresponding compounds and internal standard was detected by LC-MS/MS system, and the peak area ratio of compounds to internal standard was calculated. […]
MEASURE NAME: half-life at 1 μM
Answer with the number, then the unit.

// half-life at 1 μM lookup, key: CCCCCCCCCCCCCCCCS(=S)CCO[P@](=O)(CO[C@H](C)Cn1cnc2c(N)ncnc21)OCOC(=O)OC(C)C (single isomer, unassigned) [Compound T-3-2]
25.5 min

---

# PROTOCOL TEXT: Cytotoxicity experiments of the anti-HBV test (Cell-titer Blue)
# Type: cell-based
# EXPERIMENTAL SETUP: human, HepG2.2.15 cells, six days after treatment
Readings of CC50 at 6 days for the listed molecules

| MOLECULE | VALUE REPORTED |
| --- | --- |
| CCCCCCCCCCCCCCCCS(=S)CCO[P@](=O)(CO[C@H](C)Cn1cnc2c(N)ncnc21)OCOC(=O)OC(C)C (single isomer, unassigned) [Compound T-3-2] | > 50 µM |

Next item in the queue.
// CC50 at 6 days lookup, key: CCCCCCCCCCCCCCCCS(=S)CCO[P@@](=O)(CO[C@H](C)Cn1cnc2c(N)ncnc21)OCOC(=O)OC(C)C (single isomer, unassigned) [Compound T-3-1]
> 50 µM

---

# PROTOCOL TEXT: Cytotoxicity assay in uninfected MT-4 cells (CellTiter-glo)
# Type: cell-based
# EXPERIMENTAL SETUP: human, read-out: HIV activity and cytotoxicity data CC50
MEASURE NAME: CC50 at 5 days

| MOLECULE | CC50 at 5 days |
| --- | --- |
| CCCCCCCCCCCCCCCCS(=S)CCO[P@](=O)(CO[C@H](C)Cn1cnc2c(N)ncnc21)OCOC(=O)OC(C)C (single isomer, unassigned) | 100 to 500 nM |

Next item in the queue.
// CC50 at 5 days lookup, key: CCCCCCCCCCCCCCCCS(=S)CCO[P@@](=O)(CO[C@H](C)Cn1cnc2c(N)ncnc21)OCOC(=O)OC(C)C (single isomer, unassigned)
100 to 500 nM
